Values were extracted from paper PMC12040169.

test.name: in vitro
experimental.setup: human, hela cells, % viability
observed.property: viability at 28.5 h, 10 µM (%)

[[record]]
compound = "O=C(O)c1cc(NC(=O)C(c2ccccc2)c2ccccc2)cc(C(=O)O)c1"
observed_property = "viability at 28.5 h, 10 µM"
observed = 93.2

[[record]]
compound = "OC(COc1c(Br)cccc1Br)CN1CCCCC1 (centres unmarked) [CBK003077T]"
observed_property = "viability at 28.5 h, 10 µM"
observed = 90.9

[[record]]
compound = "COCCNc1cc(-c2cccc3oc4ccccc4c23)ncn1"
observed_property = "viability at 28.5 h, 10 µM"
observed = 101

[[record]]
compound = "Cc1ccc(NC(=O)Nc2ccc(F)cc2)cc1S(=O)(=O)N(C)C"
observed_property = "viability at 28.5 h, 10 µM"
observed = 92.8

[[record]]
compound = "CC(=O)Nc1ccc2nc(NC(=O)c3ccc(C#N)cc3)sc2c1"
observed_property = "viability at 28.5 h, 10 µM"
observed = 92.4


----------
test.name: in vitro
Parameters: Viability of infected HeLa host cells, resazurin conversion, bulk resorufin fluorescence relative to DMSO
experimental.setup: human, hela cells; bulk resorufin, mean of 3
Threshold-based label: viability at 28.5 h, 0.0123333 µM under 90% gives met, viability at 28.5 h, 0.0123333 µM not under 90% gives not met.

[[record]]
compound = "CC(Cc1nc(-c2nccn2C)cs1)n1cc(Cl)cn1 (stereo not shown) [c14e]"
assigned_category = "not met"

[[record]]
compound = "CNC(=S)N1CCN(c2nsc3ccccc23)CC1"
assigned_category = "not met"

[[record]]
compound = "FC(F)(F)c1ccc(N2CCNCC2)nc1OCc1ccc2c(c1)OCCO2 [c46e]"
assigned_category = "not met"

[[record]]
compound = "O=[N+]([O-])c1ccc(-n2cnc3ccccc32)c([N+](=O)[O-])c1 [c41e]"
assigned_category = "not met"

[[record]]
compound = "O=C(CC1SC(Nc2ccc(O)cc2)=NC1=O)c1ccccc1 (stereo not shown) [c13e]"
assigned_category = "not met"

[[record]]
compound = "N#Cc1c(Nc2cccc(C(F)(F)F)c2)sc(C(=O)c2ccc3c(c2)OCO3)c1N"
assigned_category = "met"


----------
A collection of molecules and their measured viability at 28.5 h, 10 µM
test.name: in vitro
experimental.setup: human, hela cells, % viability
observed.property: viability at 28.5 h, 10 µM (%)

[[record]]
molecule = "COc1ccc(C(C)C)cc1-c1ccc(C(=O)N2CCN(C)CC2)c(N(C)C)n1"
observed = 88

[[record]]
molecule = "O=C(NCCc1cccs1)Nc1ccc(F)c(F)c1"
observed = 87

[[record]]
molecule = "c1ccc2c(c1)CCCN2Cc1ncc[nH]1"
observed = 89.2

[[record]]
molecule = "CCOC(=O)CN1N=C(C)C(Cc2c(Cl)cccc2Cl)(OC)C1=O (centres unmarked)"
observed = 98.1

[[record]]
molecule = "CC(C)c1ccc(S(=O)(=O)NCCC(C)(C)C)cc1"
observed = 95.4

[[record]]
molecule = "O=C(c1nccs1)C1CCN(C(=O)Cc2ccccc2Cl)CC1"
observed = 87.4

[[record]]
molecule = "COc1ccc(-c2cn(-c3cccc(NC(C)=O)c3)nn2)cc1"
observed = 97.2

[[record]]
molecule = "CC(C)(CC(=O)Nc1sc2c(c1C(=O)O)CCC2)CC(=O)Nc1sc2c(c1C(=O)O)CCC2"
observed = 92.3

[[record]]
molecule = "CN(C)CCCNc1oc(/C=C/c2cccs2)nc1C#N"
observed = 86.7

[[record]]
molecule = "O=C1CN(C(=O)NCCc2c[nH]c3ccccc23)CCN1"
observed = 95.8

[[record]]
molecule = "CC(C)C(=O)N1CC2(CCN(Cc3ccc(C(C)C)cc3)CC2)c2ccccc21"
observed = 98.8

[[record]]
molecule = "O=C1CCCN1CCCNC(=O)N1CCN(Cc2ccccc2)CC1"
observed = 104

[[record]]
molecule = "Cc1ccc(CN2CCCC(n3c(=O)oc4ccccc43)C2)o1 (centres unmarked)"
observed = 95.6

[[record]]
molecule = "Cc1cc2ncc3c(n2n1)CC1CCC3N1C(=O)c1ccco1 (centres unmarked)"
observed = 78.1

[[record]]
molecule = "COCCOC(=O)C1=C(C)N(c2ccc(C(=O)O)cc2)C(=O)NC1c1ccccc1Cl (centres unmarked)"
observed = 97

[[record]]
molecule = "C=C1C2(C(=O)NCCn3nc(C)c(Cl)c3C)CCC(C2)C1(C)C (centres unmarked)"
observed = 81.5

[[record]]
molecule = "O=c1[nH]cc([C@@H]2O[C@H](CO)[C@H](O)C2O)c(=O)[nH]1 (some centres unmarked)"
observed = 103

[[record]]
molecule = "Cc1ccc2c(C)c(-c3cncn3C(C)CN3CCOCC3)oc2c1 (centres unmarked)"
observed = 107

[[record]]
molecule = "O=C(/C=C/c1cccc([N+](=O)[O-])c1)NC(=S)Nc1ccc(-c2nc3ncccc3o2)cc1"
observed = 99.2

[[record]]
molecule = "CCCS(=O)(=O)Nc1nccnc1-c1ccc(Oc2ccccc2)cc1"
observed = 106


----------
test.name: in vitro
experimental.setup: human, hela cells, % viability
observed.property: viability at 28.5 h, 10 µM (%)

[[record]]
molecule = "COc1ccc(C(=O)Nc2nc(OCC(F)(F)F)cnc2/C=C\\c2ccccc2)c(OC)c1"
observed = 104

[[record]]
molecule = "O=C(c1ccc(F)cc1)N1C[C@@H](c2ccsc2)[C@@H]2CN(Cc3cccc(F)c3)CC[C@@H]21"
observed = 91.2

[[record]]
molecule = "Cc1cccc(CN2CC[C@H]3[C@@H](C2)[C@H](c2ccsc2)CN3C(=O)c2ccc(F)cc2)c1"
observed = 94.9

[[record]]
molecule = "O=C(c1cccs1)N1C[C@H](c2ccc(F)cc2)[C@H]2CN(Cc3ccc(F)cc3)CC[C@H]21"
observed = 91.3

[[record]]
molecule = "FC(F)(F)c1ccc(Oc2ccc(-c3noc(-c4ccccn4)n3)cc2)nc1"
observed = 90.1

[[record]]
molecule = "O=C(CSc1nn2cnnc2s1)Nc1ccc(I)cc1"
observed = 88.2

[[record]]
molecule = "O=C1NC2(CCNCC2)Oc2ccc(-c3cccc4ncccc34)cc21 [CBK083775T]"
observed = 95.3

[[record]]
molecule = "CSCCC(=O)N1CCC2(CCN(Cc3ccccc3)CC2)C1"
observed = 101

[[record]]
molecule = "COc1ccc(Br)cc1C(=O)NC(=S)Nc1cc(Cl)c(O)c(Cl)c1"
observed = 89.6

[[record]]
molecule = "CSCCC(=O)NCCc1c[nH]c2ccc(Cl)cc12"
observed = 95.6

[[record]]
molecule = "C/C(=N\\N1CCN(Cc2cccc3ccccc23)CC1)c1ccncc1"
observed = 98.9

[[record]]
molecule = "Cc1cc(I)ccc1OCCCCN1CCN(C)CC1 [CBK269652C]"
observed = 91.3

[[record]]
molecule = "O=C(c1ccccc1)c1ccccc1OCCO"
observed = 116

[[record]]
molecule = "CCCCc1c(C)nc2ccc(OC)cc2c1SCCC(=O)O"
observed = 98.1

[[record]]
molecule = "c1ccc2c(CCN3CCC[C@@H]3CN3CCCC3)c[nH]c2c1"
observed = 87.4

[[record]]
molecule = "CC(C)(C)C(Cn1cccn1)NC(=O)CCC(=O)O (stereo not shown)"
observed = 81.3

[[record]]
molecule = "Cc1cc(C(=O)N2Cc3ccccc3C2)n[nH]1"
observed = 100

[[record]]
molecule = "NC(=O)c1cccc(Cn2c3c(c4cccc(C(=O)O)c42)CCCCC3)c1"
observed = 98.6

[[record]]
molecule = "CCCCc1ccc(S(=O)(=O)Nc2nccnc2-c2cccs2)cc1"
observed = 90.4

